- experimental details: in vitro
- protocol conditions: human, hela cells, % viability
The reader will find reported viability at 28.5 h, 10 µM values listed item by item below.
reported property: viability at 28.5 h, 10 µM (%)

>>> experimental_result("Oc1cccc(OCCOc2nccnc2N2CCCC2)c1 [CBK115756]")
85.5
>>> experimental_result("COc1cc(CN2CCN(Cc3ccncc3)CC2)cc(OC)c1O [CBK263401]")
80.6
>>> experimental_result("O=C1NC2(CCN(C(=O)c3ccccc3F)CC2)Oc2ccccc21 [CBK283997]")
81.9
>>> experimental_result("Cc1c(Cl)cccc1NC(=O)c1cnc2sccn2c1=O [CBK246518]")
115
>>> experimental_result("c1cc(N2CCN(CCN3CCCC3)CC2)ncc1-c1ccc2c(c1)OCO2 [CBK037769]")
95.1
>>> experimental_result("COc1ccc(OCCN2CCC3(CC2)CN(C(=O)CO)c2ccccc23)cc1 [CBK131512]")
103
>>> experimental_result("CC(=O)N1N=C(COc2ccc(C)cc2)OC1c1ccc(Br)cc1 (stereo not drawn) [CBK294396]")
103
>>> experimental_result("Cc1ccc(-c2noc(-c3cccnc3N3CCC(C(=O)O)CC3)n2)cc1 [CBK287260]")
90.3
>>> experimental_result("COc1ccc(-c2cc(C(=O)N/N=C/c3c(C)[nH]c4ccccc34)[nH]n2)cc1 [CBK262884]")
55.7

* * *

- experimental details: in vitro
- protocol conditions: human, hela cells, % viability
reported property: viability at 28.5 h, 10 µM (%)

>>> experimental_result("Oc1cccc(Sc2nccc(C(F)(F)F)n2)c1")
96.6
>>> experimental_result("N=C1/C(=C/c2ccc(-c3cccc([N+](=O)[O-])c3)o2)C(=O)N=C2SC(SCc3ccccc3)=NN12")
88.5
>>> experimental_result("O=S(=O)(Nc1ccc2c(ccn2Cc2ccccc2)c1)c1cc(C(F)(F)F)cc(C(F)(F)F)c1")
94.7
>>> experimental_result("O=C(Nc1ccc2n(c1=O)C[C@H]1C[C@@H]2CN(C(=O)Cc2cccs2)C1)c1ccco1")
102
>>> experimental_result("OCCNc1nccnc1-c1ccoc1")
106
>>> experimental_result("CCN=C(S)NNC(=O)CCn1c2ccccc2c2ccccc21")
93.8
>>> experimental_result("CC(C)(CO)CNc1cncc(-c2ccccc2CO)n1")
96.3
>>> experimental_result("Cn1ccnc1C1(O)CCN(C(=O)CC2CCCCC2)CC1")
97.2
>>> experimental_result("Cc1ccc(-c2nc(C3CCCN(C(=O)NC4CCCCC4)C3)n3ccccc23)cc1 (centres unmarked)")
94.4
>>> experimental_result("CC(C)CCOc1nccnc1-c1ccc2c(c1)OCO2")
104
>>> experimental_result("O=C(CSc1nnc(SCc2cccc3ccccc23)s1)Nc1ccc(F)c(Cl)c1")
92.1
>>> experimental_result("Cc1ccc(S(=O)(=O)N2CCOCC2)cc1C(=O)NCCc1ccccc1")
99
>>> experimental_result("COc1cc(CNc2ccc(N3CCOCC3)c(Cl)c2)ccc1OCc1ccccc1F")
93.6
>>> experimental_result("O=C(Nc1ccc([N+](=O)[O-])cc1)Nc1ccc(N2CCOCC2)c2nonc12")
93.1
>>> experimental_result("COc1cc(C(C)=O)ccc1OC(=O)CN1C(=O)c2ccccc2C1=O")
112
>>> experimental_result("Cn1cc(CN2CCCC(c3cc4ccccc4cn3)C2)cn1 (centres unmarked)")
101
>>> experimental_result("CCC1c2ccc(C)n2CCN1Cc1cnc(C)n1C (centres unmarked)")
105
>>> experimental_result("COc1ccc(Cl)cc1NC(=O)C1CN(S(=O)(=O)c2ccccc2)CCN1S(=O)(=O)c1ccccc1 (centres unmarked)")
93.3
>>> experimental_result("CCOc1ccc2c(c1)C(=O)c1cc(OCC(=O)O)ccc1-2")
94.3
>>> experimental_result("Cn1ccnc1CN1CCCC(CCC(=O)Nc2ccccc2F)C1 (centres unmarked)")
92.1
>>> experimental_result("O=C(CO)N1CC2(CCN(Cc3cccc4cccnc34)CC2)c2ccccc21")
104
>>> experimental_result("CCN1CCN(C(=O)c2ccc(C)c(S(=O)(=O)Nc3cccc(C)c3)c2)CC1")
109
>>> experimental_result("O=C(O)CCc1ccc(S(=O)(=O)Nc2ccccc2Cc2ccccc2)cc1")
99.6
>>> experimental_result("COCCN1CCN(c2nc(-c3ccncc3)nc3c2CCC3)CC1")
95.7
>>> experimental_result("CC(=O)c1sc(NC(=O)c2ccc(N3C(=O)CCC3=O)cc2)nc1C")
86.5
>>> experimental_result("CC(=O)Nc1ccc2n(c1=O)C[C@H]1C[C@@H]2CN(C(=O)COc2ccccc2)C1")
89
>>> experimental_result("O=C(Nc1cccnc1)c1c(O)n(Cc2ccccc2)c2ccccc2c1=O")
110
>>> experimental_result("O=C1CC2(CCN(C(=O)N3CCCC3)CC2)Oc2ccc(F)cc21")
84.9
>>> experimental_result("CCN(CC)C(=O)c1sc2ncccc2c1NS(=O)(=O)Cc1ccccc1[N+](=O)[O-]")
92.1
>>> experimental_result("O=C(c1nccs1)C1CCN(C(=O)C2CCCCC2)CC1")
107
>>> experimental_result("Cc1csc(NC(=O)CSc2ccc3nnc(-c4ccccc4)n3n2)n1")
105
>>> experimental_result("CCC(CO)Nc1cncc(-c2cccc(F)c2)n1 (centres unmarked)")
96.1
>>> experimental_result("Cc1ccc(S(=O)(=O)N(CC(=O)Nc2ccccc2F)c2cc(Cl)ccc2Cl)cc1")
111
>>> experimental_result("O=S(=O)(c1ccccc1)C1C2C=CC(COC3CCCCO3)(O2)C1S(=O)(=O)c1ccccc1 (centres unmarked)")
92.6
>>> experimental_result("O=C(Nc1ccc(N2CCCCC2)c(F)c1)C1CC(=O)N(C2CC2)C1 (centres unmarked)")
108
>>> experimental_result("CC(C)(CC(=O)O)CC(=O)Nc1ccc2c(c1)ncn2CCc1ccccc1")
91.7
>>> experimental_result("Cn1c(=O)n(CCN2CCOCC2)c(=O)c2c1nc1n2CCN1c1ccccc1")
95.1
>>> experimental_result("O=C(CSc1nnc(-c2ccncc2)o1)c1ccccc1")
87.5
